Value source: the supplement of paper PMC12350171

- Tested on: S. enterica typhimurium WT;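 further: active when median AUC fell below 0.1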
- Method notes: growth AUC normalised to DMSO control (median) (fraction of control); higher = less growth inhibition, active = hit call of the paper;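 active = normalised median growth AUC below 0.1 of DMSO control; inactive = AUC 0.1 or higher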
- Measurement parameters: 20 µM
Outcome (select one): active, inactive

Query :: Outcome? CC(=O)OCC(=O)[C@@]1(O)CC[C@H]2[C@@H]3CCC4=CC(=O)CC[C@]4(C)[C@@]3(F)[C@@H](O)C[C@@]21C [Fludrocortisone acetate]
Result :: inactive

Query :: # iterate: CCC(=O)O[C@@H](O[P@](=O)(CCCCc1ccccc1)CC(=O)N1C[C@H](C2CCCCC2)C[C@H]1C(=O)O)C(C)C [Fosinopril]
Result :: inactive

Query :: How about C[N+]1(C)CCC(=C(c2ccccc2)c2ccccc2)CC1 [Diphemanil methylsulfate] ?
Result :: inactive

Query :: // next record CC(=O)OCC(=O)[C@@]1(OC(C)=O)[C@@H](C)C[C@H]2[C@@H]3C[C@H](F)C4=CC(=O)C=C[C@]4(C)[C@@]3(F)[C@@H](O)C[C@@]21C [Diflorasone Diacetate]
Result :: inactive

Query :: What do we get for C(=C\c1ccccc1)/CN1CCN(C(c2ccccc2)c2ccccc2)CC1 [Cinnarizine] ?
Result :: inactive

Query :: Input CCOC(=O)O[C@]1(C(=O)COC(=O)CC)CC[C@H]2[C@@H]3CCC4=CC(=O)C=C[C@]4(C)[C@H]3[C@@H](O)C[C@@]21C [Prednicarbate]
Result :: inactive

====

- Test system: S. enterica typhimurium WT;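 further: active when median AUC fell below 0.1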
- Method notes: growth AUC normalised to DMSO control (median) (fraction of control); higher = less growth inhibition, active = hit call of the paper
- Measurement parameters: 20 µM
Where a name gives a salt, the structure may show the parent alone.
Assay endpoint: growth AUC normalised to DMSO control

As a guide, the following entries are already answered.
OC(c1cc(C(F)(F)F)nc2c(C(F)(F)F)cccc12)C1CCCCN1 (configuration not stated) [Mefloquine hydrochloride] : 0.998 (inactive)
CCCCC(CC)CN1CN(CC(CC)CCCC)CC(C)(N)C1 (configuration not stated) [Hexetidine] : 1.02 (inactive)
Clc1cccc(Cl)c1NC1=NCCN1 [Clonidine hydrochloride] : 0.996 (inactive)
CCCCNc1ccc(C(=O)OCCN(C)C)cc1 [Tetracaine hydrochloride] : 0.999 (inactive)

Query :: Requested field: growth AUC normalised to DMSO control. Item: Nc1nc(O)c2ncn(CCC(CO)CO)c2n1 [Penciclovir]
Result :: 1 (inactive)

Query :: Another compound to check: CN(C)C(=O)C(CCN1CCC(O)(c2ccc(Cl)cc2)CC1)(c1ccccc1)c1ccccc1 [Loperamide hydrochloride]
Result :: 1 (inactive)

Query :: And what about the compound CN1CCN(CCCN2c3ccccc3Sc3ccc(Cl)cc32)CC1 [Prochlorperazine dimaleate] ?
Result :: 0.996 (inactive)

Query :: Next entry: CC(=O)S[C@@H]1CC2=CC(=O)CC[C@]2(C)[C@H]2CC[C@@]3(C)[C@@H](CC[C@@]34CCC(=O)O4)[C@H]12 [Spironolactone]
Result :: 0.998 (inactive)

====

- System: S. enterica typhimurium WT;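 further: active when median AUC fell below 0.1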
- Method notes: growth AUC normalised to DMSO control (median) (fraction of control); higher = less growth inhibition, active = hit call of the paper
- Measurement parameters: 20 µM
Catalogue of growth AUC normalised to DMSO control values

CO[C@@]12[C@H](COC(N)=O)C3=C(C(=O)C(C)=C(N)C3=O)N1C[C@@H]1N[C@@H]12 : 0.196 (inactive)

Query :: Need growth AUC normalised to DMSO control of O=C1Nc2ccc(Cl)cc2[C@@](C#CC2CC2)(C(F)(F)F)O1 , thanks.
Result :: 1 (inactive)

Query :: Let us now turn to Cc1cc(C#N)cc(C)c1Oc1nc(Nc2ccc(C#N)cc2)nc(N)c1Br
Result :: 1.01 (inactive)

Query :: Record: CC(=O)Oc1cc(C(F)(F)F)ccc1C(=O)O
Result :: 0.995 (inactive)

Query :: Request: N[C@H](Cc1ccccc1)C(=O)O
Result :: 0.995 (inactive)
